- system.under.test: Tubulin (Homo sapiens) (UniProt P68371+Q9H4B7+P0DPH7+P68366+Q13509+Q71U36+P04350+Q3ZCM7+P07437+P68363+Q9BQE3+Q6PEY2+Q13885+Q9BVA1+Q9BUF5)
- assay.summary: Stabilization of microtubules in human QBI293 cells assessed as fold change in acetylated tubulin levels at 10 uM after 4 hrs by ELISA relative to DMSO
- Type: cell-based
Each record here notes measured fold change (FC).
reported.endpoint: fold change (FC)

{"compound": "Fc1cc(F)c(-c2c(Cl)nc3ncnn3c2N2CCC2)c(F)c1", "obs.value": 1.22}
{"compound": "CCCNc1c(-c2c(F)cc(F)cc2F)c(Cl)nc2ncnn12", "obs.value": 1.14}
{"compound": "CO[C@H]1C[C@H]2CC[C@@H](C1)N2c1c(-c2c(F)cc(F)cc2F)c(Cl)nc2ncnn12", "obs.value": 7.43}
{"compound": "CC(C)Nc1c(-c2c(F)cc(F)cc2F)c(Cl)nc2ncnn12", "obs.value": 2.01}
{"compound": "C[C@H](Nc1c(Cc2c(F)cc(F)cc2F)c(Cl)nc2ncnn12)C(F)(F)F", "obs.value": 1.43}
{"compound": "CC(Nc1c(-c2c(F)cc(F)cc2F)c(Cl)nc2ncnn12)C(F)F (stereo not given)", "obs.value": 1.82}
{"compound": "Fc1cc(F)c(-c2c(Cl)nc3ncnn3c2N2CCCCCCC2)c(F)c1", "obs.value": 7.16}
{"compound": "C[C@H](Nc1c(-c2c(F)cc(N)cc2F)c(Cl)nc2ncnn12)C(F)(F)F", "obs.value": 0.69}
{"compound": "C[C@H](Nc1c(-c2cc(F)ccc2F)c(Cl)nc2ncnn12)C(F)(F)F", "obs.value": 4.1}
{"compound": "C[C@@H](Nc1c(-c2ccc(C#N)cc2F)c(Cl)nc2ncnn12)C(C)(C)C", "obs.value": 7.67}

----------
- system.under.test: Tubulin (Homo sapiens) (UniProt P68371+Q9H4B7+P0DPH7+P68366+Q13509+Q71U36+P04350+Q3ZCM7+P07437+P68363+Q9BQE3+Q6PEY2+Q13885+Q9BVA1+Q9BUF5)
- assay.summary: Stabilization of microtubules in human QBI293 cells assessed as fold change in alpha tubulin levels at 10 uM after 4 hrs by ELISA relative to DMSO
- Type: cell-based

{"compound": "C[C@@H](Nc1c(-c2c(F)cc(F)cc2F)c(Cl)nc2ncnn12)C(F)(F)F", "fold change (FC)": 1.47}
{"compound": "Fc1cc(F)c(-c2c(Cl)nc3ncnn3c2N2CCCCCCC2)c(F)c1", "fold change (FC)": 1.28}
{"compound": "CC(C)[C@@H](C)Nc1c(-c2ccc(C#N)cc2F)c(Cl)nc2ncnn12 (stereo in doubt; 67)", "fold change (FC)": 0.93}
{"compound": "Fc1cc(F)c(-c2c(Cl)nc3ncnn3c2N2CCCCCC2)c(F)c1", "fold change (FC)": 0.99}
{"compound": "C[C@H](Nc1c(-c2ccc(F)cc2)c(Cl)nc2ncnn12)C(F)(F)F", "fold change (FC)": 1.13}
{"compound": "Fc1cc(F)c(-c2c(Cl)nc3ncnn3c2Nc2ccccc2)c(F)c1", "fold change (FC)": 0.96}

----------
- system.under.test: Tubulin (Homo sapiens) (UniProt P68371+Q9H4B7+P0DPH7+P68366+Q13509+Q71U36+P04350+Q3ZCM7+P07437+P68363+Q9BQE3+Q6PEY2+Q13885+Q9BVA1+Q9BUF5)
- assay.summary: Stabilization of microtubules in human QBI293 cells assessed as fold change in alpha tubulin levels at 1 uM after 4 hrs by ELISA relative to DMSO
- Assay type: cell-based
fold change (FC) vs 1: at or above is met, below is not met.

{"compound": "CC(C)[C@@H](C)Nc1c(-c2c(F)cc(C#N)cc2F)c(Cl)nc2ncnn12", "label.class": "not met"}
{"compound": "CC(C)CNc1c(-c2c(F)cc(F)cc2F)c(Cl)nc2ncnn12", "label.class": "met"}
{"compound": "Fc1cc(F)c(-c2c(Cl)nc3ncnn3c2NC2CC2)c(F)c1", "label.class": "met"}
{"compound": "Fc1cc(F)c(-c2c(Cl)nc3ncnn3c2NC2CCCC2)c(F)c1", "label.class": "met"}
{"compound": "C[C@H](Nc1c(-c2ccccc2F)c(Cl)nc2ncnn12)C(F)(F)F", "label.class": "met"}
{"compound": "C[C@H](Nc1c(-c2c(F)cccc2F)c(Cl)nc2ncnn12)C(F)(F)F", "label.class": "met"}
{"compound": "Fc1cc(F)c(-c2c(Cl)nc3ncnn3c2NC2CCCCC2)c(F)c1", "label.class": "met"}
{"compound": "CC(C)[C@@H](C)Nc1c(-c2ccc(C#N)cc2F)c(Cl)nc2ncnn12 (stereo in doubt; 68)", "label.class": "not met"}
{"compound": "C[C@H](Nc1c(-c2ccc(F)cc2)c(Cl)nc2ncnn12)C(F)(F)F", "label.class": "met"}
{"compound": "C[C@H](Nc1c(-c2ccccc2)c(Cl)nc2ncnn12)C(F)(F)F", "label.class": "met"}
{"compound": "CSc1cc(F)c(-c2c(Cl)nc3ncnn3c2N[C@@H](C)C(F)(F)F)c(F)c1", "label.class": "not met"}
{"compound": "CC(CF)Nc1c(-c2c(F)cc(F)cc2F)c(Cl)nc2ncnn12 (stereo not given)", "label.class": "not met"}
{"compound": "C[C@H](Nc1c(-c2c(F)cc(C#N)cc2F)c(Cl)nc2ncnn12)C(F)(F)F", "label.class": "not met"}
{"compound": "Fc1cc(F)c(-c2c(Cl)nc3ncnn3c2NC2CCC2)c(F)c1", "label.class": "not met"}
{"compound": "CO[C@H]1C[C@H]2CC[C@@H](C1)N2c1c(-c2c(F)cc(F)cc2F)c(Cl)nc2ncnn12", "label.class": "met"}
{"compound": "COc1cc(F)c(-c2c(Cl)nc3ncnn3c2N[C@@H](C)C(F)(F)F)c(F)c1", "label.class": "not met"}
{"compound": "C[C@@H](Nc1c(-c2ccc(C#N)cc2F)c(Cl)nc2ncnn12)C(C)(C)C", "label.class": "not met"}
{"compound": "C[C@H](Nc1c(-c2cc(F)cc(F)c2)c(Cl)nc2ncnn12)C(F)(F)F", "label.class": "met"}
{"compound": "Fc1cc(F)c(-c2c(Cl)nc3ncnn3c2N2CCCC2)c(F)c1", "label.class": "met"}
{"compound": "C[C@H](Nc1c(-c2c(F)cc([S+](C)[O-])cc2F)c(Cl)nc2ncnn12)C(F)(F)F (stereo not given in full)", "label.class": "not met"}
{"compound": "C[C@H](Nc1c(-c2c(F)cc([S@@+]([O-])CCCN(C)C)cc2F)c(Cl)nc2ncnn12)C(F)(F)F", "label.class": "met"}
{"compound": "Fc1cc(F)c(-c2c(Cl)nc3ncnn3c2N2CCC2)c(F)c1", "label.class": "not met"}
{"compound": "Fc1cc(F)c(-c2c(Cl)nc3ncnn3c2Nc2ccccc2)c(F)c1", "label.class": "met"}
{"compound": "C[C@H](Nc1c(-c2cc(F)ccc2F)c(Cl)nc2ncnn12)C(F)(F)F", "label.class": "met"}
{"compound": "C[C@H](Nc1c(-c2c(F)cc(Cl)cc2F)c(Cl)nc2ncnn12)C(F)(F)F", "label.class": "not met"}
{"compound": "C[C@H](Nc1c(-c2c(F)cc(C(F)(F)F)cc2F)c(Cl)nc2ncnn12)C(F)(F)F", "label.class": "met"}
{"compound": "CCCNc1c(-c2c(F)cc(F)cc2F)c(Cl)nc2ncnn12", "label.class": "met"}
{"compound": "C[C@H](Nc1c(-c2c(F)cc(S(=O)(=O)CCCN(C)C)cc2F)c(Cl)nc2ncnn12)C(F)(F)F", "label.class": "not met"}
{"compound": "Oc1c(-c2c(F)cc(F)cc2F)c(Cl)nc2ncnn12", "label.class": "met"}
{"compound": "N#Cc1ccc(-c2c(Cl)nc3ncnn3c2N2CCCCCC2)c(F)c1", "label.class": "met"}
